Every entry's value here was drawn from patent US10428080B2.

Tested target: IKKε (Homo sapiens)
Assay procedure: IKKe Biochemical Assay
Measured attribute: IC50

INSERT INTO measurements (compound, measured_attribute, reported_measurement) VALUES
  ('COc1cc(C(=O)NC2CN3CCC2CC3)ccc1-c1cc2nccc(-c3ccc(NC4C5COCC54)c(C#N)c3)c2o1 (stereo not shown)', 'IC50', '< 100 nM');

###

Quick reference: IC50 of the listed items.
Tested target: IKKε (Homo sapiens, UniProt Q14164)
Sequence (Q14164 whole entry, species assumed): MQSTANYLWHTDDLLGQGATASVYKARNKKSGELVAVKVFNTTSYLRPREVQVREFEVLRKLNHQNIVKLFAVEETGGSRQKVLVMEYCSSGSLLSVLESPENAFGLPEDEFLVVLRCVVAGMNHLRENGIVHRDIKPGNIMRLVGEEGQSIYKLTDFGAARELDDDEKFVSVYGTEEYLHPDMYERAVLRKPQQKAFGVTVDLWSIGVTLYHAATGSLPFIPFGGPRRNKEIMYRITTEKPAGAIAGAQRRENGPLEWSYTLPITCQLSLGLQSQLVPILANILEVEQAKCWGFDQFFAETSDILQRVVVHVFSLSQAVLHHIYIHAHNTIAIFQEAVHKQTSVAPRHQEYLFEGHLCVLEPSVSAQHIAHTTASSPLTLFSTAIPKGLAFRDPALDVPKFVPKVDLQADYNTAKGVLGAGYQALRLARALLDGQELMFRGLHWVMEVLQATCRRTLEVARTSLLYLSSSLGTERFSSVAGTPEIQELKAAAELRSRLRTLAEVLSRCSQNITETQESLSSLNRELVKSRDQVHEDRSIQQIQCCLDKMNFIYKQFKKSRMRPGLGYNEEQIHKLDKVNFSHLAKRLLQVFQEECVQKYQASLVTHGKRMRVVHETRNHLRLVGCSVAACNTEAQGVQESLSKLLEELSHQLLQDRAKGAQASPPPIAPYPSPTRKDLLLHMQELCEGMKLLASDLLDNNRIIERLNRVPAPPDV
Assay procedure: IKKe Biochemical Assay
Condition summary: read-out: IKKε IC50
Structures can show the parent of a compound that is named as a salt.
Measured attribute: IC50

INSERT INTO assay_data (molecule, reported_measurement) VALUES
  ('CN(C)C(=O)c1ccc(-c2cc3nccc(-c4ccc(Oc5ccncc5)c(C#N)c4)c3o2)cc1 [Compound 200]', '> 5 µM'),
  ('COc1cc(C(=O)N(C)CCO)cnc1-c1cc2nccc(-c3ccc(OC4CCOCC4)c(C#N)c3)c2o1 [Compound 328]', '< 0.1 µM'),
  ('COc1cc(C(=O)N(C)C)ccc1-c1cc2nccc(-c3ccc(O[C@@H]4CCCNC4)c(C#N)c3)c2o1 [Compound 163]', '0.1 to 1 µM'),
  ('COc1cc(C(=O)N(C)C)cnc1-c1cc2ncc(C)c(-c3ccc(OC4CCOCC4)c(C#N)c3)c2o1 [Compound 320]', '1 to 5 µM'),
  ('COc1cc(C(=O)N2CC3NCCC32)ccc1-c1cc2nccc(-c3ccc(OC4CCOCC4)c(C#N)c3)c2o1 (stereo not shown) [Compound 55, hydrochloride]', '< 0.1 µM'),
  ('CC(C)N1CCN(C(=O)c2ccc(-c3cc4nccc(-c5ccc(OC6CCOCC6)c(C#N)c5)c4o3)cc2)CC1 [Compound 116]', '< 0.1 µM'),
  ('COc1cc(C(=O)NC(C)(C)CN(C)C)ccc1-c1cc2nccc(-c3ccc(NC4C5COCC54)c(C#N)c3)c2o1 (stereo not shown) [Compound 502]', '< 0.1 µM');
